- targetSystem: Fibroblast growth factor 2 (Homo sapiens) (UniProt P09038)
- Sequence (P09038 whole entry, looked up): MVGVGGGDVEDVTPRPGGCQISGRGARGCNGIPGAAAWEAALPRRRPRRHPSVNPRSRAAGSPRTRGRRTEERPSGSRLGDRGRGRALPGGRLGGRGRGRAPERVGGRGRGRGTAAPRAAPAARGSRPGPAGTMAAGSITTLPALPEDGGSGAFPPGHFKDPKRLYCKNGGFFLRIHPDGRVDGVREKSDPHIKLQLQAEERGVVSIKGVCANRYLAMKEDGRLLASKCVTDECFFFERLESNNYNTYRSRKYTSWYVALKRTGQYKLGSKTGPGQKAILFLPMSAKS
- assayText: basic fibroblast growth factor binding to printed compounds – biochemical, small-molecule microarray, 635/667 nm fluorescence, primary screen (AID 1133)
- testParameters: FGF2, fluorescence 635/667, higher = more signal
propertyMeasured: composite z-score
Please state the value as a number alone, without comment.

Check out these entries, answers already filled in.
| molecule | reportedMeasurement |
| --- | --- |
| COCCCNC(=O)[C@@H]1c2ccccc2C(=O)N(Cc2ccc(OC(F)(F)F)cc2)[C@H]1c1ccc(CO)cc1 | 0.722 |
| CCCC#C[Si](O[C@H](CC)c1cn(Cc2ccccc2)nn1)(C(C)C)C(C)C | 0.525 |
| COC(=O)C(CC#Cc1ccc2c(c1)[C@]1(C(=O)N2)[C@H](c2ccccc2OCCO)N2[C@H](c3ccccc3)[C@H](c3ccccc3)OC(=O)[C@H]2[C@@H]1C(=O)N1CCc2cc(OC)c(OC)cc2C1)C(=O)OC | 0.667 |
| CC(C)C[C@H]1NC(=O)C([C@@H](C)OCc2ccccc2)NC(=O)[C@@]23C(=O)N[C@@H](Cc4ccccc4)C2[C@H](C)[C@@]2(C)O[C@H]2C3/C=C/C/C=C\CNC1=O (stereo not given in full) | 0.434 |
| C=C(COC)/C(=C/C[C@H](OC(C)=O)c1ccccc1OCCO)c1cc(C(=O)OC)ccc1OC | 0.54 |

Please examine the following record next.
-- ask Item: COC(=O)[C@@]1(Cc2ccc(OC)cc2)[C@H]2c3cc(C(=O)N4CCCC4)n(Cc4ccc(C(F)(F)F)nc4)c3C[C@H]2CN1C(=O)c1ccccc1 Test system: Fibroblast growth factor 2 (Homo sapiens) (UniProt P09038) Read-out: composite z-score Value: ?
-- reply -0.342

----------
- targetSystem: Concanavalin-A (Canavalia ensiformis)
- assayText: compounds binding concanavalin A lectin – biochemical, small-molecule microarray, Alexa647 label, 635 nm, artefact control for SMM control protein annotation, primary screen (AID 1127);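 note: z combines 667 nm emission intensity with signal-to-noise across three replicate slides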
- testParameters: ConA-A647 binding fluorescence, higher = more signal
Classification by composite z-score | ranges: I = under 0.5, II = from 0.5 up to 1, III = 1 and over

Check out these entries, answers already filled in.
| molecule | answerLabel |
| --- | --- |
| CCCCCCc1nc(Cc2cc(OC)c(OC)c(OC)c2)cc2c1[Si](C(C)C)(C(C)C)O[C@H]2c1ccccc1 | I |
| CCOC(=O)C1=CCC(c2cc3ccccc3[nH]2)N(CCN2CC(C(=O)OCC)=CCC2c2cc3ccccc3[nH]2)C1 (centres undefined) | III |
| Cc1ccc(N2C(=O)c3ccccc3[C@](C)(C(=O)NCCCN(C)C)[C@@H]2c2ccc(CO)cc2)nc1 | I |
| CN(C)CCCC[C@@H]1NC(=O)[C@H]2C[C@@H](C(=O)O)[C@@H](c3ccc(O)cc3)N2C1=O | III |
| C=CCOC(=O)[C@@H]1[C@H]2C(=O)O[C@H](c3ccccc3)[C@H](c3ccccc3)N2[C@H](c2ccc(OCCOC(=O)[C@H]3C[C@H]4C(=O)N5CCC[C@H]5C(=O)N4[C@H]3c3cccc(OCCO)c3)cc2)[C@@]12C(=O)Nc1ccc(I)cc12 | III |

-- ask Returns: class label. Input: NCCCCCCNC(=O)[C@@H]1C[C@@H]2C(=O)N3CCC[C@H]3C(=O)N2[C@@H]1c1cccc(OCCO)c1
-- reply III

-- ask Returns: class label. Input: CC(=O)OCC1C2CC[C@H]3C(OCc4ccc(F)cc4C(F)(F)F)OC[C@]4(C)[C@H]3C2=C(CN4C(=O)OC(C)(C)C)[C@H](C)C1COC(C)=O (some centres undefined)
-- reply III

-- ask Returns: class label. Input: CC(C)(C)N1CC=CC23O[C@@H]4C=CCOC(=O)[C@@H]4[C@H]2C(=O)N(CCO)[C@@H]3C1=O (some centres undefined)
-- reply I

-- ask Returns: class label. Input: [N-]=[N+]=Nc1ccccc1[C@@H]1OC(c2ccc(OCCCO)cc2)=N[C@]1(Cc1ccccc1)C(=O)NCCN1CCOCC1
-- reply I

-- ask Returns: class label. Input: COC(=O)[C@]1(CCC(=O)OC(C)(C)C)N=C(c2ccc(OCCCO)cc2)O[C@@H]1c1ccccc1N=[N+]=[N-]
-- reply II

-- ask Returns: class label. Input: C[C@@H]1NC(=O)C([C@@H](C)OCc2ccccc2)NC(=O)[C@@]23C(=O)N[C@@H](Cc4ccccc4)C2[C@H](C)[C@@]2(C)O[C@H]2C3/C=C/C/C=C\CNC1=O (some centres undefined)
-- reply I

-- ask Returns: class label. Input: COC(=O)C[C@H]1O[C@@]2(C[C@@H]1[Si](C)(C)C)C(=O)N(C)c1ccccc12
-- reply I

-- ask Returns: class label. Input: C=C(COC)C(=O)CC[C@@H](OC(=O)c1ccccc1-c1ccccc1C(=O)O)c1ccc(OCCO)cc1
-- reply I

-- ask Returns: class label. Input: COc1ccc(C(O)C2C=CC3C(=O)N(c4ccccc4)C(=O)C3N2Nc2ccc(C#N)cc2)cc1OCc1ccccc1 (centres undefined)
-- reply III
